src = PubChem BioAssay (NCI)

System: SK-MEL-28 melanoma
methodDescription: NCI tumour cell line growth inhibition, 48 h
# TGI values compiled below

compound	TGI
O=C(CSc1nnc(-c2ccccc2NC(=O)C(F)(F)F)c(=O)[nH]1)NC(=O)Nc1ccccc1	> 100 µM
CC1(C)c2ccccc2C(=O)C12CCC(=O)CC2	> 100 µM
O=c1cc(-c2ccccc2)[nH]c2cc3c(cc12)OCO3	> 100 µM
O=C(Nc1cccc(Cl)c1Cl)c1cccc(NC2=C(Cl)C(=O)N(Cc3ccccc3)C2=O)c1	> 100 µM
COc1ccc(-n2cc(-c3ccc(Cl)c(Cl)c3)nc2SCc2cccc(C#N)c2)cc1	> 100 µM
CCN1CCN(c2ccc(Nc3ccnc4ccc5nn(C)nc5c34)cc2)CC1	30.5 µM
COc1ccccc1NC(=O)C1=C(C)NC(C)=C(C(=O)Nc2ccccc2OC)C1c1ccc([N+](=O)[O-])cc1	> 100 µM
NC(=O)C(=CNc1nc(-c2ccc(Cl)c(Cl)c2)cs1)C(N)=O	> 100 µM
COc1ccc(CCNC2=CC(=O)c3ncccc3C2=O)cc1OC	2.69 µM
COc1ccc2c(c1C)C(=O)C(O)(CC=C(C)C)O2 (stereo unspecified)	> 100 µM
COc1cc(/C=C2\C(=O)Nc3ccc(F)cc32)cc(OC)c1OC	> 100 µM
Cc1cccc(NC(=O)/C=C/c2ccc(N(CCC#N)CCC#N)cc2C)c1	> 100 µM
O=C(CCC/C(CC(=O)c1ccc(Br)cc1)=N\O)Nc1ccccc1	> 100 µM
COn1cc(C=O)c2ccccc21	> 100 µM
Nc1ccc(C(=O)NN2C(=O)C(Cl)C2c2ccccc2Cl)cc1 (stereo unspecified)	28.3 µM
COc1ccc(C(=O)C(CO)Oc2ccccc2OC)cc1OC (stereo unspecified)	> 100 µM
Cc1ccc(Nc2nc(N)c(C(=O)c3ccc(C#N)cc3)s2)cc1	> 100 µM
COc1ccc(-c2cc(-c3cccn3C)c(C#N)c(N)n2)cc1OC	> 100 µM
CC1=NC(=Cc2ccc(O)cc2)C(=O)N1n1c(-c2ccccc2)nc2ccccc2c1=O	> 100 µM
Clc1ccc(-c2c(C3=NCCN3)nnn2-c2ccc(Cl)cc2)cc1	52.5 µM
CCN1c2nc3ccccc3nc2N(CC)c2nc3ccccc3nc21	> 100 µM
CCOC(=O)c1[nH]c(COC(C)=O)c(CCCOC(C)=O)c1CCCOC(C)=O	> 100 µM
Cc1cn2c(=O)c3ccccc3nc2s1	> 100 µM
CCOC(=O)C1N(S(=O)(=O)c2ccc(C)cc2)CCC12C(c1ccc(OC)cc1)NC1CCCCC12 (stereo unspecified)	> 100 µM
C[C@]12CCC(=O)C=C1CC[C@@H]1C2CC[C@]2(C)c3nn(-c4ccc(F)cc4)nc3CC12 (stereo partly specified)	> 100 µM
O=c1c(-c2ccccc2)c(SCCCN2CCN(c3cccc(Cl)c3)CC2)n(-c2ccccc2)c(=S)n1-c1ccccc1	> 100 µM
COc1cc(/C=C2\C[C@H]3[C@@H]4CC=C5C[C@@H](O)CC[C@]5(C)[C@H]4CC[C@]3(C)C2=O)cc(OC)c1OC	> 100 µM
C=CCNC1=C2C[C@@H](C)C[C@@H](OC)[C@@H](OC(=O)CCCN)[C@H](C)/C=C(\C)[C@@H](OC(N)=O)[C@H](OC)/C=C\C=C(/C)C(=O)NC(=CC1=O)C2=O	41.9 µM
C=CCN1C[C@H](C)N([C@H](c2ccc(C(=O)N(CC)CCO)cc2)c2cccc(OC)c2)C[C@H]1C	> 100 µM
CCOC(=O)c1csc(NC(=O)C(C)N2CCCCC2)n1 (stereo unspecified)	> 100 µM
COc1cc2cn3c4ccc(O)cc4[nH]c(=O)c3c2cc1OC	0.681 µM
C=CCn1c(=O)n(CC=C)c(=O)n(CC=C)c1=O	> 100 µM
O=C(CCCN1CC=C(n2c(=O)[nH]c3ccccc32)CC1)c1ccc(F)cc1	> 100 µM
Cc1cccc2c1Oc1cc(Cl)ccc1C2NC(=O)CCN1CCOCC1 (stereo unspecified)	> 100 µM
Fc1ccc(Nc2cc(-n3nnc4ccccc43)nc3ccccc23)cc1	> 100 µM
C#CC(=O)Nc1cccc(Nc2nc3c(c(NCc4ccccc4)n2)CCCC3)c1	2.97 µM
CC(=O)c1csc2c1C(=O)c1scc(C(C)=O)c1C2=O	3.64 µM
COc1ccc2c3c1O[C@H]1C(O)CCC4(O)[C@@H](C2)NCC[C@]314 (stereo partly specified)	> 100 µM
COc1ccc(/C=c2/sc3n(c2=O)C(c2ccc(OC)c(OC)c2)C2=C(N=3)c3cc(F)ccc3OC2)cc1 (stereo unspecified)	> 96.6 µM
Cc1sc2nc(NCCc3c[nH]c4ccc(Cl)cc34)[nH]c(=O)c2c1C	15.7 µM
CC(C)=CCS(=O)c1ccccc1NC1=CC(=O)CC(C)(C)C1 (stereo unspecified)	> 100 µM
